- Measurement Notes: soluble on expression in E. coli; label from the status in PepcDB or PDB records
Endpoint Name: soluble on expression in E. coli

Query Sequence: MKVAIIACQKMVEMGCPGKEACVSCFKAINEKSGAFERYKDVELVAFTTCGGCPGRRFPMRVKLLKTAAGAEAIHIANCTFLQPECPYINFDEICKKLMEELEIPIVFGTHTLVKKGEVVCTCGDNKE
Experimental Value: not soluble

Query Sequence: MGQPIITRDAGRYFLTDRIRHEVDWWNTPQARGEEPPPVQKPVAPGAMVIPLPPPATWGIPPCSLADGIARRESRRRFRAVPLTPEELAFLLWATQGVRARLNEAAVLRTVPSAGCRHPFETYLAILSVTGIEPAVYRYLPLDHALVLEREVPDLAATVTAAAHGQRFAGEAAVTFVWTAIPARTEWRYAEASYKVIALDAGHVCQNLYLACEAIGAGTCAIAAYRQALADELLGVDGREEFTVYLAPVGKV
Experimental Value: not soluble

====

- Measurement Notes: soluble on expression in E. coli; label from the status in PepcDB or PDB records

Query Sequence: MVRMALEGMSKRKRKRSVQEGENPDDGVRGSPPEDYRLGQVASSLFRGEHHSRGGTGRLASLFSSLEPQIQPVYVPVPKQTIKKTKRNEEEESTSQIERPLSQEPAKKVKAKKKHTNAEKKLADRESALASADLEEEIHQKQGQKRKNSQPGVKVADRKILDDTEDTVVSQRKKIQINQEEERLKNERTVFVGNLPVTCNKKKLKSFFKEYGQIESVRFRSLVCFIPPLEHHHHHH
soluble on expression in E. coli: not soluble

Query Sequence: MAQSETVERILDAAEQLFAEKGFAETSLRLITSKAGVNLAAVNYHFGSKKALIQAVFSRFLGPFCASLEKELDRRQAKPEAQHATLEDLLHLLVSQAMAVKPRSGNDLSIFMRLLGLAFSQSQGHLRKYLEEVYGKVFRRYMLLVNEAAPKLPPIELFWRVHFMLGAAAFSMSGIKALRAMAETDFGVNTSTEQVMHLMVPFFAAGMRAESGIDDPLLAGAQLRPRNKTPAKA
soluble on expression in E. coli: soluble

Query Sequence: MEKPIIRGYIRENGSVGVRNYVAVIPVDDLSNSASIGVSKLIRGTVAIPHPYGRLQFGKDLDLLFHVLSGTGANPNVAAAIVIGIEENWANKVADKIAETGKPVEVFPVEGNGDLKVIEKASRKAKEFVQEASEKQRTEVDLSSLVLSIKCGESDTTSGLASNPATGYAVDKLIDYGSTVMFGETSELTGAEDIVASRIQDPVLRDKFMRIYNEYVAFIESQGVDLLGSQPTEGNIKGGLSTIEEKALGNIQKLGTKPITCVLDYLDPLGKGSSRLCFVNTSSAAAEAVTLFAAKGSVLHLFTTGQGNVVGHPIIPVVKISANPKTIATMSEHIDVDVSDLLQLKVSLKEAGERIFNYTIRVANGRLTSAEILQHEEFSPIKLYISA
soluble on expression in E. coli: not soluble

Query Sequence: GMSYQNANYSAFYVSEPFSESNLGANSTHDFVYYNMLRMWKGEDNSFPFNDAHDKTYNVRDGSDWEKTLKPRLHTRLDNSKNIILFLSSITANSRALREEMNYGIGTKGLPVIVIYPDYDKKSDIVDSNGNFKKQIKDLWDKLPAFRDNMSSVATLHIPCTKSVIISALNNEDFMVNTMADAEKYYYKP
soluble on expression in E. coli: soluble

Cited source for all entries: the DeepSol protein solubility set
